Where do these numbers come from? They come from patent US10201531B2.

Tested on: Nrf2
test method notes: Evaluation of Nrf2 activation ability (Nrf2d-LacZ / Keap1 HEK293 reporter, Beta-Glo luminescence)
Format: cell-based, human
test parameters: rated A/B/C, Pharmacological Test Example 1
Reported EC50 by item:

- compound: "COc1c(-c2cnc3c(c2)OCCN3C)ccc2c1cnn2-c1cc(O)n[s+]1[O-] (centres unmarked) [Example 211]"
  tested on: "Nrf2"
  EC50: "< 1000 nM"
- compound: "[O-][s+]1nc(O)cc1-n1ncc2c1CCN(Cc1ccccc1)C2 (centres unmarked) [Example 252]"
  tested on: "Nrf2"
  EC50: "1000 to 5000 nM"
- compound: "[O-][s+]1nc(O)cc1-n1ncc2c(-c3cccnc3)cccc21 (centres unmarked) [Example 92]"
  tested on: "Nrf2"
  EC50: "1000 to 5000 nM"
- compound: "[O-][s+]1nc(O)cc1-n1ncc2cc(-c3ccccc3Cl)ccc21 (centres unmarked) [Example 40]"
  tested on: "Nrf2"
  EC50: "< 1000 nM"
- compound: "CC(=O)Nc1ccc(-c2ccc3c(cnn3-c3cc(O)n[s+]3[O-])c2)cc1 (centres unmarked) [Example 66]"
  tested on: "Nrf2"
  EC50: "1000 to 5000 nM"
- compound: "Cc1cncc(-c2ccc3c(cnn3-c3cc(O)n[s+]3[O-])c2)c1 (centres unmarked) [Example 56]"
  tested on: "Nrf2"
  EC50: "< 1000 nM"
- compound: "[O-][s+]1nc(O)cc1-n1ncc2ccccc21 (centres unmarked) [Example 1, 5-(indazol-1-yl)-1-oxo-1,2-thiazol-3-ol]"
  tested on: "Nrf2"
  EC50: "1000 to 5000 nM"
- compound: "[O-][s+]1nc(O)cc1-n1cc(CCc2ccccc2)cn1 (centres unmarked) [Example 307]"
  tested on: "Nrf2"
  EC50: "< 1000 nM"
- compound: "[O-][s+]1nc(O)cc1-n1ncc2c1CN(CC1CCCCC1)C2 (single isomer, unassigned) [Example 273]"
  tested on: "Nrf2"
  EC50: "< 1000 nM"
- compound: "COc1ccc(-c2ccc3c(cnn3-c3cc(O)n[s+]3[O-])c2)cn1 (centres unmarked) [Example 86]"
  tested on: "Nrf2"
  EC50: "< 1000 nM"
- compound: "CC(C)(C)OC(=O)N1CCc2cn(-c3cc(O)n[s+]3[O-])nc2CC1 (centres unmarked) [Example 244]"
  tested on: "Nrf2"
  EC50: "1000 to 5000 nM"
- compound: "[O-][s+]1nc(O)cc1-n1ncc2cc(-c3ccc(Oc4ccccc4)cc3)ccc21 (centres unmarked) [Example 74]"
  tested on: "Nrf2"
  EC50: "< 1000 nM"
- compound: "CC1COc2cc(-c3ccc4c(cnn4-c4cc(O)n[s+]4[O-])c3)cnc2N1 (centres unmarked) [Example 10]"
  tested on: "Nrf2"
  EC50: "< 1000 nM"
- compound: "[O-][s+]1nc(O)cc1-n1ncc2cc(-c3cnc(N4CCCCC4)cn3)ccc21 (centres unmarked) [Example 140]"
  tested on: "Nrf2"
  EC50: "< 1000 nM"
- compound: "O=C(c1ccccc1)N1CCC(c2ccc3c(cnn3-c3cc(O)n[s+]3[O-])c2)CC1 (centres unmarked) [Example 168]"
  tested on: "Nrf2"
  EC50: "5000 to 10000 nM"
- compound: "CN1CCN(c2cc(-c3ccc4c(cnn4-c4cc(O)n[s+]4[O-])c3)ccn2)CC1 (centres unmarked) [Example 53]"
  tested on: "Nrf2"
  EC50: "< 1000 nM"
- compound: "COc1ccncc1-c1ccc2c(cnn2-c2cc(O)n[s+]2[O-])c1 (centres unmarked) [Example 47]"
  tested on: "Nrf2"
  EC50: "1000 to 5000 nM"
- compound: "CN1CCc2cc(-c3ccc4c(cnn4-c4cc(O)n[s+]4[O-])c3)cnc21 (centres unmarked) [Example 158]"
  tested on: "Nrf2"
  EC50: "< 1000 nM"
- compound: "[O-][s+]1nc(O)cc1-n1ncc2cc(-c3cc4c(cn3)NCCO4)ccc21 (centres unmarked) [Example 219]"
  tested on: "Nrf2"
  EC50: "< 1000 nM"
- compound: "[O-][s+]1nc(O)cc1-n1ncc2cc(-c3cccnc3)ccc21 (centres unmarked) [Example 54]"
  tested on: "Nrf2"
  EC50: "< 1000 nM"
- compound: "COc1cc(-c2ccc3c(cnn3-c3cc(O)n[s+]3[O-])c2)ccn1 (centres unmarked) [Example 3]"
  tested on: "Nrf2"
  EC50: "< 1000 nM"
- compound: "CC(C)(C)OC(=O)N1CC=C(c2cnn(-c3cc(O)n[s+]3[O-])c2)CC1 (centres unmarked) [Example 304]"
  tested on: "Nrf2"
  EC50: "1000 to 5000 nM"
- compound: "Cc1cncc(-c2ccc3cnn(-c4cc(O)n[s+]4[O-])c3c2)c1 (centres unmarked) [Example 113]"
  tested on: "Nrf2"
  EC50: "5000 to 10000 nM"
- compound: "COc1cc(-c2ccncc2)cc2c1cnn2-c1cc(O)n[s+]1[O-] (centres unmarked) [Example 200]"
  tested on: "Nrf2"
  EC50: "1000 to 5000 nM"
- compound: "[O-][s+]1nc(O)cc1-n1ncc2cc(-c3cnc(N4CCOCC4)cn3)ccc21 (centres unmarked) [Example 142]"
  tested on: "Nrf2"
  EC50: "1000 to 5000 nM"
- compound: "CC(C)(C)OC(=O)N1CCc2nn(-c3cc(O)n[s+]3[O-])cc2C1 (centres unmarked) [Example 248]"
  tested on: "Nrf2"
  EC50: "1000 to 5000 nM"
- compound: "[O-][s+]1nc(O)cc1-n1ncc2cc(-c3cccc(N4CCCC4)n3)ccc21 (centres unmarked) [Example 138]"
  tested on: "Nrf2"
  EC50: "< 1000 nM"
- compound: "CC(=O)NC1(c2ccc(-c3ccc4c(cnn4-c4cc(O)n[s+]4[O-])c3)cc2)CC1 (centres unmarked) [Example 65]"
  tested on: "Nrf2"
  EC50: "5000 to 10000 nM"
- compound: "COc1ccc(-c2ccc3c(cnn3-c3cc(O)n[s+]3[O-])c2)c(C)n1 (centres unmarked) [Example 6]"
  tested on: "Nrf2"
  EC50: "1000 to 5000 nM"
- compound: "CN1CC(C)(C)Oc2cc(-c3ccc4c(cnn4-c4cc(O)n[s+]4[O-])c3)cnc21 (centres unmarked) [Example 188]"
  tested on: "Nrf2"
  EC50: "< 1000 nM"
- compound: "[O-][s+]1nc(O)cc1-n1ncc2nc(Cl)ccc21 (centres unmarked) [Example 227]"
  tested on: "Nrf2"
  EC50: "1000 to 5000 nM"
- compound: "COc1cc(-c2ccc(N3CCCC3)nc2)c2cnn(-c3cc(O)n[s+]3[O-])c2c1 (centres unmarked) [Example 175]"
  tested on: "Nrf2"
  EC50: "< 1000 nM"
- compound: "[O-][s+]1nc(O)cc1-n1ncc2cccc(Cl)c21 (centres unmarked) [Example 37]"
  tested on: "Nrf2"
  EC50: "1000 to 5000 nM"
- compound: "CC(C)(C)OC(=O)N1CC=C(c2ccc3cnn(-c4cc(O)n[s+]4[O-])c3c2)CC1 (centres unmarked) [Example 104]"
  tested on: "Nrf2"
  EC50: "1000 to 5000 nM"
- compound: "CC(C)(C)OC(=O)N1CCc2c(cnn2-c2cc(O)n[s+]2[O-])C1 (centres unmarked) [Example 247]"
  tested on: "Nrf2"
  EC50: "1000 to 5000 nM"
